Just for reference, patent US8563580B2 is where these values come from.

# Test details: Cytotoxicity assay (MTT), naïve Vero cells
# Type: cell-based
# Measurement parameters: African green monkey, 18 hours incubation
CC50 at 18 h by entry:
Recorded endpoint: CC50 at 18 h (µM)

INSERT INTO results (smiles_text, reported) VALUES
  ('Oc1c(CN2CCOCC2)cc(Cl)c2cccnc12', 355),
  ('CCN(CC)Cc1cc(Cl)c2cccnc2c1O', 60.9);

----------
# Tested on: Dengue 2 replicon expressing BHK cells
# Test details: Replicon inhibition assay (Renilla luciferase), Dengue 2 replicon expressing BHK cells
# Format: cell-based, Dengue virus (DENV2)
# Measurement parameters: Dengue virus, BHK, 24 h
# Protocol: Baby Hamster Kidney (BHK) and African green monkey kidney epithelial cells (Vero) were cultured in Dulbecco's Modified Eagle Medium (DMEM) (Cellgro®; Mediatech, Inc., Manassas, Va.) supplemented with 10% fetal bovine serum, MEM nonessential amino acid (Cellgro®) (5 ml/liter), and Penicillin-Streptomycin (2.5 ml/liter). […] Renilla luciferase activity was measured as described above 24 hours after the addition of the compounds.
Recorded endpoint: EC50 (µM)

INSERT INTO results (compound, measured_on, recorded_endpoint, reported) VALUES
  ('Oc1c(CN2CCOCC2)ccc2cccnc12 [Compound 33]', 'Dengue 2 replicon expressing BHK cells', 'EC50', 10.6),
  ('Oc1c(CN2CCOCC2)cc(Cl)c2cccnc12 [Compound 34]', 'Dengue 2 replicon expressing BHK cells', 'EC50', 35),
  ('CCN(CC)Cc1cc(Cl)c2cccnc2c1O [Compound 35]', 'Dengue 2 replicon expressing BHK cells', 'EC50', 2.35),
  ('Oc1c(CN2CCOCC2)cc(Cl)c2c1NCCC2 [Compound 36]', 'Dengue 2 replicon expressing BHK cells', 'EC50', 63.1);
